- Test system: MILI (PIWIL2) piRISC loaded with L1MC piRNA (26 nt);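 further: 1 nM active piRISC with 0.1 nM target library at 33 °C single turnover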
- PROCEDURE SUMMARY: pre-steady-state target cleavage rate (min^-1); guide: L1MC piRNA 5'p-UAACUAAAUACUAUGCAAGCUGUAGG; higher = faster piRNA-guided slicing of the target
- RUN CONDITIONS: auxiliary factor: none (no GTSF1)
Entries annotated with measured pre-steady-state target cleavage rate
Write the number on its own, no unit after it.

SEQUENCE CHAIN: UCCUGCGACAGCUUGCAUAGUAUUUAGUUA
TARGET UNDER TEST: MILI (PIWIL2) piRISC loaded with L1MC piRNA (26 nt);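 further: 1 nM active piRISC with 0.1 nM target library at 33 °C single turnover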
REPORTED PROPERTY: pre-steady-state target cleavage rate
ASSAY RESULT: 0.00828

pre-steady-state target cleavage rate for "UCCUGGAACAGCUUGCAUAGUAUUUACGUUA" ?
0.00654

pre-steady-state target cleavage rate for "UCCUGGAACAGCUUGCAUAGUAUCUAGUUA" ?
0.00512

pre-steady-state target cleavage rate for "UCCUGGUACACCAUGCAUAGUAUUUAGUUA" ?
0.0052

pre-steady-state target cleavage rate for "UCCUGGAUGAGCUUGCAUAGUACUUUAGUUA" ?
0.00632

pre-steady-state target cleavage rate for "UCCUGGAACAGCAUUGCAUAGUAUUUAGUUA" ?
0.00862

pre-steady-state target cleavage rate for "UCCUGGAUGUCGAUGCAUAGUAUUAUAGUUA" ?
0.00538

pre-steady-state target cleavage rate for "UCCUCCUUCAGCUUGCUUAGUAUUUAGUUA" ?
0.00762

pre-steady-state target cleavage rate for "UCCUGGAUCACCUUGCAUUGUAUUUAGUUA" ?
0.00486

pre-steady-state target cleavage rate for "UCCUCCUACACCUAGCAUAGUAUUUAGUUA" ?
0.0056

pre-steady-state target cleavage rate for "UCCUGGAUGUCCUUGCAUAGUAUAAAGUUA" ?
0.00312

---

- System: EfPiwi piRISC loaded with L1MC piRNA (26 nt)
- PROCEDURE SUMMARY: pre-steady-state target cleavage rate (min^-1); auxiliary factor: 500 nM Ephydatia muelleri Gtsf1; guide: L1MC piRNA 5'p-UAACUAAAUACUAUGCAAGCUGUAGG; MIWI and MILI are mouse PIWI proteins and EfPiwi is from a freshwater sponge; tags in brackets are library labels; higher = faster piRNA-guided slicing of the target
REPORTED PROPERTY: pre-steady-state target cleavage rate

The cases that follow already have their pre-steady-state target cleavage rate on record.
SEQUENCE CHAIN: UCCUGGUACAGCUUUCAUAGUAUUUAGUUA
pre-steady-state target cleavage rate: 0.00404
//
SEQUENCE CHAIN: UCCUCCUACAGCUUGCAUAGUUUUUAGUUA
pre-steady-state target cleavage rate: 0.00894
//
SEQUENCE CHAIN: UCCUGGAUCACGUUGCAUAGUAUUUAGAAA
pre-steady-state target cleavage rate: 0.00652
//
SEQUENCE CHAIN: UCCUGGUACAGCUUCCAUAGUAUUUAGAAA
pre-steady-state target cleavage rate: 0.00336

pre-steady-state target cleavage rate for "UCCUGGAUGUCGAUUGCAUAGUAUUUAGUUA" ?
0.00712

pre-steady-state target cleavage rate for "UCCUCCUACAGCUUGCUUAGUAUUUAGUUA" ?
0.0424

pre-steady-state target cleavage rate for "UCCUGGAUGAGCUUGCAAUAGUAUUUAGUUA" ?
0.00597

pre-steady-state target cleavage rate for "UCCUGGAUCAGCUUGCAUAUUAUUUAGUUA" ?
0.0367

pre-steady-state target cleavage rate for "UCCUGCAACAGGUUGCAUAGUAUUUAGUUA" ?
0.018

pre-steady-state target cleavage rate for "UCCUGGAUGUCCUUGCAUAGUAUUUAGUAA" ?
0.00321
